Consider the following compounds; for each one, report its inhibition.
tested on: Calf thymus DNA; experiment: Binding affinity to calf thymus DNA assessed as inhibition of DNA-dependent Escherichia coli RNA polymerase activity by measuring [14C]ATP incorporation at 0.1 mM by liquid scintillation spectrometer analysis; type: nucleic-acid assay; conditions: Bos taurus
Give bare numbers, in %.

// solved cases for inhibition follow
| smilesRepr | testSystem | readoutUnit | inhibition |
| --- | --- | --- | --- |
| Cc1cc(NCCCCCCNc2cc(C)nc3cc(N)ccc23)c2ccc(N)cc2n1 | Calf thymus DNA | % | 97 |
| Cc1cc(NCCCCCCCCNc2cc(C)nc3cc(N)ccc23)c2ccc(N)cc2n1 | Calf thymus DNA | % | 97 |
| Cc1cc(NCCCCNCCCNc2cc(C)nc3cc(N)ccc23)c2ccc(N)cc2n1 | Calf thymus DNA | % | 92 |
| Cc1cc(NCCCNCCCNc2cc(C)nc3cc(N)ccc23)c2ccc(N)cc2n1 | Calf thymus DNA | % | 94 |

Turning to the following compound.
Ask | Report inhibition for Cc1cc(NCCCCCCCNc2cc(C)nc3cc(N)ccc23)c2ccc(N)cc2n1 please.
Reply | 98
